# Test system: E. coli TESEC Mtb DapB
# test_name: growth (OD600 after 10 h); higher = more growth (less inhibition)
# study_conditions: arabinose induction (level): Low; compound 0.1 mM; raw OD600 reference: median of DMSO wells 0.227, cell-free background 0.041
Where a name gives a salt, the structure may show the parent alone.
measured_metric: growth
Give only the figure.

Request: Field request: growth | item: "Nc1ccn([C@@H]2CS[C@H](CO)O2)c(=O)n1"
Result: 0.207

Request: Field request: growth | item: "CC(C)(Oc1ccc(Cl)cc1)C(=O)O"
Result: 0.251

Request: Field request: growth | item: CN1CCOC(c2ccccc2)c2ccccc2C1 (centres undefined) [Nefopam hydrochloride]
Result: 0.243

Request: Field request: growth | item: CCC(C)(CN(C)C)OC(=O)c1ccccc1 (centres undefined) [Amyleine hydrochloride]
Result: 0.209

Request: Field request: growth | item: CCOc1cc(CC(=O)N[C@@H](CC(C)C)c2ccccc2N2CCCCC2)ccc1C(=O)O [Repaglinide]
Result: 0.201

Request: Field request: growth | item: COc1ccccc1OCCNCC(O)COc1cccc2[nH]c3ccccc3c12 (centres undefined)
Result: 0.06

Request: Field request: growth | item: "O=C(O)c1cc(/N=N/c2ccc(S(=O)(=O)Nc3ccccn3)cc2)ccc1O"
Result: 0.231

Request: Field request: growth | item: "Nc1nc(=O)c2nc(CNc3ccc(C(=O)N[C@@H](CCC(=O)O)C(=O)O)cc3)cnc2[nH]1"
Result: 0.239

Request: Field request: growth | item: COCCCC/C(=N\OCCN)c1ccc(C(F)(F)F)cc1 [Fluvoxamine maleate]
Result: 0.229
